- experiment-notes: chemical genetic growth profiling, strain panel (AID 1159580);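 note: tested at 20 µM; growth read once vehicle control cultures reached saturation at 30 °C; 1 = growth at the plate median or of vehicle wells; lower values mean less growth of the strain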
- experimental-setup: S. cerevisiae deletion strains, growth OD, locus YOR061W, strain CKA2
In all, about 5,500 compounds went through this assay and about 2,000 (36%) were called active. Not shown: some 18% with an inconclusive outcome. Cut-off read from the data, not from the text of the source: active = normalized growth mostly below about 0.91 (no sharp cut-off); inconclusive = no clear call, values can overlap the other calls; inactive = mostly above about 0.92. The list shows a part of the results.
Lab note: assign the record to one of t (active), f (inactive)

compound | assigned-class
COc1c2ccoc2cc2oc(=O)ccc12 | t
OC(COc1ccc(F)cc1)(c1ccccc1)c1ccccc1 | f
O=C1C=C2C(=CCOC2O)O1 (stereo unspecified) | f
O=C(Cc1cccs1)NC1C(=O)N2C(C(=O)[O-])=C(C[n+]3ccccc3)CSC12 (stereo unspecified) | f
Cc1cc(Cl)ccc1NNC(=O)c1sccc1Cl | f
NC(=NCCC[C@H](N)C(=O)O)N[N+](=O)[O-] | f
COc1ccc2c(c1)CCC1C2CC[C@@]2(C)C1CC[C@@H]2O (stereo partly specified) | f
CN1C(C)(C)CCCC1(C)C | f
CC(C)(C)NCC(O)c1cc(Cl)c(N)c(Cl)c1 (stereo unspecified) | f
CNC(=O)Oc1cccc2c1OC(C)(C)O2 | f

(Q) // param item: C[C@@H]([C@H](O)c1ccccc1)N(C)C ; yields the recorded call
(A) f

(Q) What do you have for FC(F)(F)c1ccc(N2CCc3ccccc3C2)c(NC(=S)Nc2cc(Cl)cc(Cl)c2)c1 ?
(A) f

----------
Measured normalized growth of individual entries
- experiment-notes: chemical genetic growth profiling, strain panel (AID 1159580);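 note: tested at 20 µM; growth read once vehicle control cultures reached saturation at 30 °C; 1 = growth at the plate median or of vehicle wells; lower values mean less growth of the strain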
- experimental-setup: S. cerevisiae deletion strains, growth OD, locus YDR159W, strain sac3, stronger effect = lower value
About 2,000 (36%) of roughly 5,500 compounds were called active. Not shown: some 18% with an inconclusive outcome. Some of the results follow.

(Q) Can you look up the measured normalized growth of NC(=O)CN1CCCC1=O for me?
(A) 1.01 (inactive)

(Q) Entry to check: CC(C)(C)NCC(O)c1cc(O)cc(O)c1 (centres undefined)
(A) 0.983 (inactive)

(Q) Field entry: C=CC1C2=CCOC(=O)C2=COC1OC1OC(CO)C(O)C(O)C1O (centres undefined)
(A) 1.02 (inactive)

(Q) Here is the next compound: COc1ccc2ccc(=O)oc2c1
(A) 0.973 (inactive)

----------
- experiment-notes: chemical genetic growth profiling, strain panel (AID 1159580);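 note: tested at 20 µM; growth read once vehicle control cultures reached saturation at 30 °C; 1 = growth at the plate median or of vehicle wells; lower values mean less growth of the strain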
- experimental-setup: S. cerevisiae deletion strains, growth OD, locus YKL067W, strain YNK1, stronger effect = lower value
The campaign covered roughly 5,500 compounds. About 2,000 (36%) were called active. Roughly 18% stayed inconclusive and do not appear here. The list shows a part of the results.
The compounds listed here are annotated with their normalized growth.

As a guide, the following entries are already answered.
compound | normalized growth
CCOC(=O)N/N=C\c1cc(Cl)cc(Cl)c1O | 0.814 (inactive)
Cc1nnc2n1N=C(c1ccc(CC(C)C)cc1)C(C)S2 (stereo not drawn) | 0.98 (inactive)
Oc1c(Cl)cc(Cl)cc1C=Nc1ccc(Sc2ccccc2)nc1Sc1ccccc1 | 0.584 (active)
CCCCNC(=S)N/N=C\c1cc(Cl)cc(Cl)c1O | 0.676 (active)

(Q) Look up normalized growth for this compound: O=C1Nc2ccccc2/C1=C/c1ccc(C(F)(F)F)cc1Cl
(A) 0.877 (inactive)

(Q) What do we get for O=C(Nc1ccccc1)Nc1ccc(Cl)cc1[N+](=O)[O-] ?
(A) 0.93 (inactive)

(Q) Another compound to look at: COCCCNC(=S)N/N=C\c1cc(Cl)cc(Cl)c1O
(A) 0.953 (inactive)

(Q) Now give it for COc1ccccc1NC(=S)N/N=C\c1ccccc1O too.
(A) 0.955 (inactive)

(Q) Ok, now FC(F)(F)c1ccc(N2CCc3ccccc3C2)c(NC(=S)Nc2cc(Cl)cc(Cl)c2)c1
(A) 0.931 (inactive)
